Molecular target: T1, Axl (Homo sapiens, UniProt P30530)
T1 sequence (P30530 26-451 limits assumed): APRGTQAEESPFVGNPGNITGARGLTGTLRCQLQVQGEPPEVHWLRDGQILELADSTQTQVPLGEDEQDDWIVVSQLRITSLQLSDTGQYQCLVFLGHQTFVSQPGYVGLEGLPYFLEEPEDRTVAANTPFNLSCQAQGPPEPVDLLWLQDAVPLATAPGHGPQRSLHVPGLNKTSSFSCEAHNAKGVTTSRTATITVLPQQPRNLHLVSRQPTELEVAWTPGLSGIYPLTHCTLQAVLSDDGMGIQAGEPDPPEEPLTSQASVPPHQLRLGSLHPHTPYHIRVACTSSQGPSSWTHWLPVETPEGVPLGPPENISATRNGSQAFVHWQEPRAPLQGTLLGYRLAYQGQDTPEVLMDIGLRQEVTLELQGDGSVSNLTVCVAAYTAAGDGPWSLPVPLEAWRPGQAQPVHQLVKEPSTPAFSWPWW
Test: Affinity ELISA of CPE mutant antibodies for binding to Axl at pH 6.0 over pH 7.4
Conditions: light chain variable region mutants; 1:3 dilution
Listing: Affinity ELISA CPE mutant ratio (1:3, pH 6.0/7.4) of selected molecules
Measurement Kind: Affinity ELISA CPE mutant ratio (1:3, pH 6.0/7.4)

Molecule: LC-T097I (antibody, V domains shown) VH: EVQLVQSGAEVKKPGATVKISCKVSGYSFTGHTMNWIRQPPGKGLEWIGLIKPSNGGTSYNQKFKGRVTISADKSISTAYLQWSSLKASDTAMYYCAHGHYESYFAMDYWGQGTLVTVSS VL: DIQMTQSPSSLSASVGDRVTITCKASQDVSSAVAWYQQKPGQAPRLLIYWASTRHTGVPSRFSGSGSGTEFTLTISSLQPDDFATYYCQEHFSTPLIFGQGTKVEIK
Measured Number: 3.086
//
Molecule: LC-P095S (antibody, V domains shown) VH: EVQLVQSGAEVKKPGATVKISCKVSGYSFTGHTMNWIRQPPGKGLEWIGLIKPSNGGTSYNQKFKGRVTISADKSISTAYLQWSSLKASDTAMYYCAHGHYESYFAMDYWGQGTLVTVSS VL: DIQMTQSPSSLSASVGDRVTITCKASQDVSSAVAWYQQKPGQAPRLLIYWASTRHTGVPSRFSGSGSGTEFTLTISSLQPDDFATYYCQEHFSTSLTFGQGTKVEIK
Measured Number: 2.841
//
Molecule: LC-L096G (antibody, V domains shown) VH: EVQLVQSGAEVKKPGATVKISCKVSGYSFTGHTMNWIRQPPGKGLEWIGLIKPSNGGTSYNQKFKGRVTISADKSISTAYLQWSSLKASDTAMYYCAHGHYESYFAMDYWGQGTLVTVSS VL: DIQMTQSPSSLSASVGDRVTITCKASQDVSSAVAWYQQKPGQAPRLLIYWASTRHTGVPSRFSGSGSGTEFTLTISSLQPDDFATYYCQEHFSTPGTFGQGTKVEIK
Measured Number: 2.165
//
Molecule: LC-V029G (antibody, V domains shown) VH: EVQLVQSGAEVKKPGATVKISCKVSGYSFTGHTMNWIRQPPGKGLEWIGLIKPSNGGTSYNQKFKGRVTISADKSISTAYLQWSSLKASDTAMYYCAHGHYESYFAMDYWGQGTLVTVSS VL: DIQMTQSPSSLSASVGDRVTITCKASQDGSSAVAWYQQKPGQAPRLLIYWASTRHTGVPSRFSGSGSGTEFTLTISSLQPDDFATYYCQEHFSTPLTFGQGTKVEIK
Measured Number: 1.939
